The entries that follow carry pIC50 values tested on IRAK4 (Homo sapiens (Human)), drawn from several published reports.
pIC50: −log10 of the molar value.
recorded metric: pIC50

Worked cases, pIC50 given:
OC[C@H]1C[C@@H](Nc2nc(NC3CCCOC3)ncc2-c2nc3ccccc3s2)[C@H](O)[C@@H]1O (mixture of isomers)	5.83
CC(O)CCNC(=O)c1cnc2ccc(-c3cn[nH]c3)nc2c1NC(C)C (centres unmarked)	8.32
CC(C)(O)[C@H](F)CNC(=O)c1cnc(Nc2ccc3ncc(C#N)cc3n2)cc1NC1CCCOC1 (some centres unmarked)	8.35
CC(C)Nc1c(C(=O)NC2CCN(C(=O)C3CC3)CC2)cnc2ccc(-c3cn[nH]c3)cc12	7.93

A: CCCc1cn(-c2cnc(-n3ncc4cc(C#N)cnc43)cc2Nc2cnn(CC(F)F)c2)nn1
B: CCC1C[C@@H](COc2csc3cc(C(N)=O)c(OC)nc23)NC1=O (single isomer, unassigned)
C: CC(C)Oc1cc2nc([C@@]34CC[C@@](C)(C3)OC4)cn2cc1C(=O)Nc1cccn(C2CC2)c1=O (single isomer, unassigned)
D: CC(C)Nc1cc(Nc2ccc3ncsc3c2)ncc1C(=O)NC1CCN(C(=O)N2CCOCC2)CC1
Hello, I need these entries ordered by pIC50, highest reading first. Thanks! Put the labels in the requested order and write them down.
C, A, D, B
(C: 9.70, A: 8.40, D: 8.15, B: 7.01)
